Ref: paper PMC9930120

Target: human CB1 receptors (Homo sapiens, UniProt P21554)
Construct: purchased Merck; host or cells: Chem-1
Sequence (P21554 whole entry): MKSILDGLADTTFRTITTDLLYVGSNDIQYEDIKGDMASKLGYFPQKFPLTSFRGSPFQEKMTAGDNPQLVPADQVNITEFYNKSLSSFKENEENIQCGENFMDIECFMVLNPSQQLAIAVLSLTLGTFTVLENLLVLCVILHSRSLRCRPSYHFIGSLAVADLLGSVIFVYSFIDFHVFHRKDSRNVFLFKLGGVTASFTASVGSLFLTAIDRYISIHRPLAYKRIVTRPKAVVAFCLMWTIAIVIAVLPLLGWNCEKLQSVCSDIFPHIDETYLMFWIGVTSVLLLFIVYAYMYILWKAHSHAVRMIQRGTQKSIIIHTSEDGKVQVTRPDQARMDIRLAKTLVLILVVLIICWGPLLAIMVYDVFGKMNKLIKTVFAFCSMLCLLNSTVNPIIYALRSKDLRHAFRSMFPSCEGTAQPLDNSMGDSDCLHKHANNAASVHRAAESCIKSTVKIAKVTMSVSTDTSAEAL
Test: CB1 radioligand displacement assay ([3H]CP-55,940)
Format: binding
Details: [3H]CP-55,940 displacement, Chem-1 membranes

STRUCTURE AS SMILES: COc1ccc(C(=O)/C=C(\C(=O)c2ccccc2)c2ccccc2)cc1CN1CCOCC1
CB1 pKi ± SEM: 5.57 ± 0.9
//
STRUCTURE AS SMILES: COc1cccc(-c2nn(Cn3nc([N+](=O)[O-])cc3C)c(-c3cccc(OC)c3)c2Cl)c1
CB1 pKi ± SEM: no activity
//
STRUCTURE AS SMILES: Cc1ccccc1-c1cc(C(=O)N2CCN(Cc3ccc4c(c3)OCO4)CC2)c2ccccc2n1
CB1 pKi ± SEM: no activity
//
STRUCTURE AS SMILES: C[C@H](Sc1nnc2c3ccccc3nc(-c3ccccc3)n12)C(=O)NC[C@@H]1CCCO1
CB1 pKi ± SEM: no activity

* * *

Target: UniProt:P34972
Experiment: biochemical
Type: binding
Settings: CB2 pKi ± SEM, [3H]CP-55,940 displacement, CHO-K1 membranes
MEASURE: pKi
Please keep in mind that pKi is minus log10 of the molar concentration; only the number is needed.

IN: Which pKi reading was recorded for the molecule COc1ccc(C(=O)/C=C(\C(=O)c2ccccc2)c2ccccc2)cc1CN1CCOCC1 [AS-7] ?
OUT: 7.18

* * *

Target: human CB2 (Homo sapiens)
Test: biochemical
Format: binding
Conditions: CB2 Ki (μM, 95% CI), [3H]CP-55,940 displacement, CHO-K1 membranes
MEASURE: Ki (µM)
The figure you give is taken to be in µM; do not add the unit.

IN: Which Ki reading was recorded for the compound COc1ccc(C(=O)/C=C(\C(=O)c2ccccc2)c2ccccc2)cc1CN1CCOCC1 ?
OUT: 0.065

* * *

Molecular target: human CB1 receptors (Homo sapiens)
Construct: purchased Merck; host or cells: Chem-1
Test: CB1 radioligand displacement assay ([3H]CP-55,940)
Format: binding
MEASURE: Ki
// unit must come after the numeric part

IN: Which Ki reading was recorded for the molecule COc1ccc(C(=O)/C=C(\C(=O)c2ccccc2)c2ccccc2)cc1CN1CCOCC1 ?
OUT: 2670 nM

* * *

Target: human CB2 (Homo sapiens, UniProt P34972)
Sequence (P34972 whole entry): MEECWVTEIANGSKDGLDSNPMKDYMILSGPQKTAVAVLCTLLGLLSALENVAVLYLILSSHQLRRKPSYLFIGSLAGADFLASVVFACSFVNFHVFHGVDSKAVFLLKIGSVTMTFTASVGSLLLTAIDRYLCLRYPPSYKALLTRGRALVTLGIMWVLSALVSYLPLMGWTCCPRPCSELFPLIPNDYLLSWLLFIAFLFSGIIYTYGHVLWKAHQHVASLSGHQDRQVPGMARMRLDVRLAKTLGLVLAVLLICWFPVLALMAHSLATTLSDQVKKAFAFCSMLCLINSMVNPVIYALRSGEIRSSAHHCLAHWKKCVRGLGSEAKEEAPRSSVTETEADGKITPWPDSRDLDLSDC
Assay: biochemical
Assay type: binding
Conditions: [3H]CP-55,940 displacement, CHO-K1 membranes; read-out: CB2 Ki (μM, 95% CI)
MEASURE: Ki (µM)
The figure you give is taken to be in µM; do not add the unit.

IN: Which Ki reading was recorded for the compound Cc1nn(Cc2ccccc2)c(Cl)c1C(=O)NCc1ccccc1Cn1ccnc1 ?
OUT: 17.9

IN: Which Ki reading was recorded for the compound C[C@H](Sc1nnc2c3ccccc3nc(-c3ccccc3)n12)C(=O)NC[C@@H]1CCCO1 ?
OUT: 6.37
